- Tested on: U251 CNS
- assay-comment: NCI-60 one-dose screen, 48 h
- condition-context: 10 µM unless noted
Compounds without any hit were thinned out: in the full panel of roughly 83,000, 20% have a hit. The source made the active and inactive calls. The calls were made as follows: active = growth percent below 10; inactive = the rest.
Outcome codes: TRUE (active), FALSE (inactive)

INSERT INTO assay_data (molecule, category_label) VALUES
  ('O=C1c2cccnc2C(=O)c2c1c(C(=O)OCCN1CCOCC1)c1ccccn21', 'TRUE'),
  ('CC/C=C\C[C@H](O)C/C=C1/C(=O)C=C[C@@H]1C/C=C\CCCC(N)=O', 'TRUE'),
  ('CN(C)c1ccc(/C=C(\C#N)c2nc3ccccc3s2)cc1', 'FALSE'),
  ('Oc1c(Cl)cc(Cl)cc1CNc1nccnn1', 'FALSE'),
  ('O=C1OC2C(I)C3CC2C1C3c1ccccc1 (stereo unspecified)', 'FALSE'),
  ('COc1ccc(-c2nn(-c3ccccc3)cc2/C=C/C(=O)OCc2cn(-c3ccc(F)c(Cl)c3)nn2)cc1', 'FALSE');

---

- System: HCT-15 colon
- assay-comment: NCI-60 one-dose screen, 48 h
- condition-context: 10 µM unless noted
The panel holds about 83,000 compounds, 20% with a hit somewhere; the sample as a whole holds those more often. Active and inactive are the calls of the source. The calls were made as follows: active = growth percent below 10; inactive = the rest.
Outcomes: yes (active), no (inactive)

INSERT INTO results (molecule, category_label) VALUES
  ('O=C(CCCN1CCOCC1)Nc1ccc(Cn2nnc3c2C(=O)c2nnn(Cc4ccc(NC(=O)CCCN5CCOCC5)cc4)c2C3=O)cc1', 'no'),
  ('CCCCNC(=O)NS(=O)(=O)c1ccc(N2N=C(c3cc(C)ccc3C)CC2c2cc(OC)c(OC)c(OC)c2)cc1 (centres undefined)', 'no'),
  ('CC(=O)C1=C(O)C=C2Oc3c(C(=O)/C=C/c4c(Cl)cccc4Cl)c(O)c(C)c(O)c3[C@]2(C)C1=O', 'yes'),
  ('CC1CN(C(C)C)C(=S)N(c2ccccc2)C1=O (centres undefined)', 'no'),
  ('CCOC(=O)C12CCCC1=CC(=O)CC2 (centres undefined)', 'no'),
  ('O=C(CN1CCN(c2cc3c(cc2F)c(=O)c(C(=O)O)cn3C2CC2)CC1)Nc1nc(-c2ccc(Cl)cc2)cs1', 'no'),
  ('CCN(CC)CCCNc1cccc2c(SCc3ccccc3)ccnc12', 'no'),
  ('Oc1ccc2c(=S)cc(-c3ccc(Br)cc3)oc2c1O', 'yes'),
  ('CC(C)[C@@H]1CC[C@]2(C(=O)NCCCCN=C(N)N)CC[C@]3(C)[C@H](CC[C@@H]4[C@@]5(C)CCC(=O)C(C)(C)[C@@H]5CC[C@]43C)[C@@H]12', 'no'),
  ('OC(c1cccc(C(F)(F)F)c1)c1cnccc1NC1CCCCCC1 (centres undefined)', 'yes'),
  ('CC1=C(NCCN2CCCC2)C(=O)c2c(OCc3ccc(F)c(Cl)c3)cccc2C1=O', 'no'),
  ('Oc1ccccc1N=Cc1c(O)ccc2ccccc12', 'no'),
  ('c1ccc(-c2nc(N3CCOCC3)c3c4c(sc3n2)CCCCC4)nc1', 'no'),
  ('CS(=O)(=O)c1ccc(-c2cnc3ccc(-c4cccc(S(C)(=O)=O)c4)nn23)cc1', 'no'),
  ('COc1cc2c(c(OC)c1OC)-c1ccc(N=NC(N)=S)c(=O)cc1[C@@H](NC(C)=O)CC2', 'no'),
  ('C=C1C(=O)O[C@H]2[C@H]1CC/C(Cn1cc(Cc3c[nH]c4ccccc34)nn1)=C\CC[C@@]1(C)O[C@@H]21', 'yes'),
  ('CC(C)Oc1nc2c(c(=O)n(C)c(=O)n2C)n1C', 'no'),
  ('CCN(CC)CCC(=O)Nc1ccc(Cn2nnc3c2C(=O)c2nnn(Cc4ccc(NC(=O)CCN(CC)CC)cc4)c2C3=O)cc1', 'no'),
  ('CCCCCCCCCC(=O)Oc1ccc(/C(=C(/C)Cc2cccc(OC)c2)c2ccc(OCCN(C)C)cc2)cc1', 'no');
